study_system: FLT3 intracellular domain protein (Homo sapiens)
Sequence (P36888 564-993 limits assumed): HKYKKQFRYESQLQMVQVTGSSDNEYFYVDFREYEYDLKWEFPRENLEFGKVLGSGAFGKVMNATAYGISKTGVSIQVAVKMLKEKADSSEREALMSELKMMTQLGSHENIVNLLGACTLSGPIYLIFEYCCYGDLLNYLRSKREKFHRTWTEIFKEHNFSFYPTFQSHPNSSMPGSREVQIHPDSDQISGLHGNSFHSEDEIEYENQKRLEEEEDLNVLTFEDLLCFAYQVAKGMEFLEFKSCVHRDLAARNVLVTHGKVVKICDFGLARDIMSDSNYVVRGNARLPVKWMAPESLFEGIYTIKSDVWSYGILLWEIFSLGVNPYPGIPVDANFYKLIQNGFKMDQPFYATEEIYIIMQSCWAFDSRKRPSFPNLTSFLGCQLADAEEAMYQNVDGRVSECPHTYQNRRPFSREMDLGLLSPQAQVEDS
assay_remarks: Flt3 enzyme inhibition test (HTRF)
assay_conditions: phosphorylation of biotinylated peptide
Listed molecules paired with reported IC50
Give the quantity in nM, number only.

Field: example entries. Status: answers known.
- input_smiles: "O=C(Nc1ccc(Oc2ccnc3[nH]ncc23)cc1)Nc1ccc(CCCF)c(C(F)(F)F)c1"
  IC50 / nM: 18
- input_smiles: "O=C(Nc1ccc(Oc2ccnc3[nH]ccc23)cc1)Nc1ccc(CF)c(C(F)(F)F)c1"
  IC50 / nM: 16
- input_smiles: "O=C(Nc1ccc(Oc2ccnc3[nH]ncc23)cc1)Nc1ccc(CCF)c(C(F)(F)F)c1"
  IC50 / nM: 6.9
- input_smiles: "O=C(Nc1ccc(Oc2ccnc3[nH]ccc23)cc1)Nc1ccc(OCCF)c(C(F)(F)F)c1"
  IC50 / nM: 11
- input_smiles: "COCCOc1cccc2cc(NC(=O)Nc3ccc(Oc4ccnc5[nH]ccc45)cc3)ccc12"
  IC50 / nM: 15
- input_smiles: "O=C(Nc1ccc(Oc2ccnc3[nH]ncc23)cc1)Nc1cc(CCF)cc(C(F)(F)F)c1"
  IC50 / nM: 18
- input_smiles: "COCCOc1ccc(NC(=O)Nc2ccc(Oc3ccnc4[nH]ccc34)cc2)cc1C(F)(F)F"
  IC50 / nM: 3.2

Given "O=C(Nc1ccc(Oc2ccnc3[nH]ccc23)cc1)Nc1ccc(CCCF)c(C(F)(F)F)c1" , state its recorded IC50. 9.7

These measurements were taken from patent US8299252B2.
